# System: LOX IMVI melanoma
# ASSAY_DETAILS: NCI tumour cell line growth inhibition, 48 h
The following molecules are listed with their measured TGI values.

MOLECULE: COC(=O)CCC(NC(=O)OC(C)(C)C)C(=O)NC(Cc1ccc(NC(=O)CCCC(C)=O)cc1)C(=O)NC(CCC(=O)OC)C(=O)OC (stereo not given)
TGI: > 100 µM
//
MOLECULE: CNC1(C(=O)O)CC1
TGI: > 100 µM
//
MOLECULE: CCOC(=O)C(Cl)(NC(=O)OCc1ccccc1)C(F)(F)F (stereo not given)
TGI: > 100 µM
//
MOLECULE: CCOC(=O)/C(O)=C(/C(=O)OC)c1ccc(Cl)cc1
TGI: > 100 µM
//
MOLECULE: CC(=O)[O][Sn]([CH2]c1ccccc1)([CH2]c1ccccc1)[CH2]c1ccccc1
TGI: > 4.64 µM

* * *

# System: A498 renal
# ASSAY_DETAILS: NCI tumour cell line growth inhibition, 48 h

COMPOUND: CCOC(=O)c1nc2ccc(C(F)(F)F)cc2nc1Oc1ccc(C(=O)OC)cc1
SYSTEM: A498 renal
TGI: > 100 µM

COMPOUND: Nc1c(C(=O)c2cccc(-c3cccnc3)c2)cnn1-c1ccc(F)cc1F
SYSTEM: A498 renal
TGI: > 23 µM

COMPOUND: CC(Cl)CC(=O)OCC1CCCN2CCCCC12 (stereo not drawn)
SYSTEM: A498 renal
TGI: > 100 µM

COMPOUND: CC1=C(C)SC(=C2Sc3nc(O)[nH]c(=O)c3S2)S1
SYSTEM: A498 renal
TGI: > 100 µM

COMPOUND: CCOc1ccc(N/C(=C(/C(Cl)=C(/Cl)NC(C)(C)C)[N+](=O)[O-])n2nnc3ccccc32)cc1
SYSTEM: A498 renal
TGI: > 100 µM

COMPOUND: COc1ccc(CC(=O)c2ccc(O)cc2O)cc1
SYSTEM: A498 renal
TGI: > 100 µM

COMPOUND: N#Cc1c(O)c(/C=N/c2ncccn2)c(=O)n2c1[nH]c1ccccc12
SYSTEM: A498 renal
TGI: > 100 µM

COMPOUND: CCOC(=O)c1c(NC(=S)Nc2ccccc2)sc2c1CCOC2
SYSTEM: A498 renal
TGI: > 100 µM

* * *

The following compounds are listed with their measured TGI values.
# Tested on: LOX IMVI melanoma
# ASSAY_DETAILS: NCI tumour cell line growth inhibition, 48 h

COMPOUND: Cc1cnc2sn(-c3ccc(Br)cc3)c(=O)c2c1
SYSTEM: LOX IMVI melanoma
TGI: > 100 µM
--
COMPOUND: Nc1nc(-c2ccco2)cc(-c2ccc(CO)o2)n1
SYSTEM: LOX IMVI melanoma
TGI: > 100 µM
--
COMPOUND: COC(=O)c1cc2ccccc2c2c3c(ccc12)OCO3
SYSTEM: LOX IMVI melanoma
TGI: > 1000 µM
--
COMPOUND: O=C1C(c2cnc3ccccc3n2)=C(O)c2ccccc21
SYSTEM: LOX IMVI melanoma
TGI: > 61.5 µM
--
COMPOUND: CC[C@H](CO)Nc1nc(NCc2ccccc2)c2ncn(C(C)C)c2n1
SYSTEM: LOX IMVI melanoma
TGI: > 84.1 µM
--
COMPOUND: COC(=O)CC1c2ccccc2N2C(=O)Cc3c([nH]c4ccccc34)C12 (configuration not stated)
SYSTEM: LOX IMVI melanoma
TGI: > 100 µM
--
COMPOUND: CC1=C(C)SC(=C2Sc3nc(O)[nH]c(=O)c3S2)S1
SYSTEM: LOX IMVI melanoma
TGI: > 100 µM
--
COMPOUND: O=c1cc(-c2cccnc2)[nH]c2cc3c(cc12)OCO3
SYSTEM: LOX IMVI melanoma
TGI: > 100 µM
--
COMPOUND: COc1cc2c(cc1OC)[C@@H](Nc1ccc(F)cc1)C1COC(=O)[C@@H]1C2c1cc(OC)c(O)c(OC)c1 (some centres not stated)
SYSTEM: LOX IMVI melanoma
TGI: > 43.4 µM
--
COMPOUND: CCN1C(=O)N(CC)C2C1NN=c1s/c(=C\c3ccccn3)c(=O)n12 (configuration not stated)
SYSTEM: LOX IMVI melanoma
TGI: > 100 µM
--
COMPOUND: CCCN(CCC)C(=O)C(=O)c1c(N)[nH]n(-c2ccccc2)c1=O
SYSTEM: LOX IMVI melanoma
TGI: > 100 µM
--
COMPOUND: CSc1nc2c(c(=O)[nH]1)N=C(c1ccccc1)CC(c1ccccc1)N2 (configuration not stated)
SYSTEM: LOX IMVI melanoma
TGI: > 100 µM
